# system-tested: Breakpoint cluster region protein/Tyrosine-protein kinase ABL1 (Homo sapiens, UniProt P00519+P11274)
# Sequence (P00519 whole entry): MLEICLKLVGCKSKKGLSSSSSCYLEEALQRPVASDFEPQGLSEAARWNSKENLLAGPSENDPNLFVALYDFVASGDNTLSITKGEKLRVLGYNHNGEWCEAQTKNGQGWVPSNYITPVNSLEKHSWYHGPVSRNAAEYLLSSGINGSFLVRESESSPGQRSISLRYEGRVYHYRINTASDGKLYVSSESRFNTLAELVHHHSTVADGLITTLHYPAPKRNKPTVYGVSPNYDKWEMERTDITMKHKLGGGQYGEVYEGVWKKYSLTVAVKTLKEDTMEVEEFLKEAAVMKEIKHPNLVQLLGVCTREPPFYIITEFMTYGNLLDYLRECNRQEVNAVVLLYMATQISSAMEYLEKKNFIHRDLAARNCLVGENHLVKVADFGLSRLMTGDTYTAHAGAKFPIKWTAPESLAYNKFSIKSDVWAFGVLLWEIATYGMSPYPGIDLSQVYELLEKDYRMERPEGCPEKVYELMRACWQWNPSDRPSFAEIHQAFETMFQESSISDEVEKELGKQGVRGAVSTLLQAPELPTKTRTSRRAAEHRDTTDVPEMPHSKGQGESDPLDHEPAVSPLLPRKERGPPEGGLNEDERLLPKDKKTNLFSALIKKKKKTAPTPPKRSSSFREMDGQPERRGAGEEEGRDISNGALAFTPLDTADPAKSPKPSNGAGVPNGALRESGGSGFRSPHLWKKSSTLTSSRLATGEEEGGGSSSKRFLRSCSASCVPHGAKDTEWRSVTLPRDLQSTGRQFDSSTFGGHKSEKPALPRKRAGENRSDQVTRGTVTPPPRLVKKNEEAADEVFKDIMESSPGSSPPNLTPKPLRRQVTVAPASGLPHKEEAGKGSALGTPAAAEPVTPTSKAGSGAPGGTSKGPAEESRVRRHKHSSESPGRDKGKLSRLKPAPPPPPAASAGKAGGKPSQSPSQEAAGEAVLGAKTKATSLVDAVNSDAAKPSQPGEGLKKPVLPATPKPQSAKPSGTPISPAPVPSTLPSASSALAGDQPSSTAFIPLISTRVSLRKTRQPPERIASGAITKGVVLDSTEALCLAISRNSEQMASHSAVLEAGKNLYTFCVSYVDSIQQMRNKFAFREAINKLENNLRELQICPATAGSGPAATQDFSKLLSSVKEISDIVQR
# Sequence (P11274 whole entry): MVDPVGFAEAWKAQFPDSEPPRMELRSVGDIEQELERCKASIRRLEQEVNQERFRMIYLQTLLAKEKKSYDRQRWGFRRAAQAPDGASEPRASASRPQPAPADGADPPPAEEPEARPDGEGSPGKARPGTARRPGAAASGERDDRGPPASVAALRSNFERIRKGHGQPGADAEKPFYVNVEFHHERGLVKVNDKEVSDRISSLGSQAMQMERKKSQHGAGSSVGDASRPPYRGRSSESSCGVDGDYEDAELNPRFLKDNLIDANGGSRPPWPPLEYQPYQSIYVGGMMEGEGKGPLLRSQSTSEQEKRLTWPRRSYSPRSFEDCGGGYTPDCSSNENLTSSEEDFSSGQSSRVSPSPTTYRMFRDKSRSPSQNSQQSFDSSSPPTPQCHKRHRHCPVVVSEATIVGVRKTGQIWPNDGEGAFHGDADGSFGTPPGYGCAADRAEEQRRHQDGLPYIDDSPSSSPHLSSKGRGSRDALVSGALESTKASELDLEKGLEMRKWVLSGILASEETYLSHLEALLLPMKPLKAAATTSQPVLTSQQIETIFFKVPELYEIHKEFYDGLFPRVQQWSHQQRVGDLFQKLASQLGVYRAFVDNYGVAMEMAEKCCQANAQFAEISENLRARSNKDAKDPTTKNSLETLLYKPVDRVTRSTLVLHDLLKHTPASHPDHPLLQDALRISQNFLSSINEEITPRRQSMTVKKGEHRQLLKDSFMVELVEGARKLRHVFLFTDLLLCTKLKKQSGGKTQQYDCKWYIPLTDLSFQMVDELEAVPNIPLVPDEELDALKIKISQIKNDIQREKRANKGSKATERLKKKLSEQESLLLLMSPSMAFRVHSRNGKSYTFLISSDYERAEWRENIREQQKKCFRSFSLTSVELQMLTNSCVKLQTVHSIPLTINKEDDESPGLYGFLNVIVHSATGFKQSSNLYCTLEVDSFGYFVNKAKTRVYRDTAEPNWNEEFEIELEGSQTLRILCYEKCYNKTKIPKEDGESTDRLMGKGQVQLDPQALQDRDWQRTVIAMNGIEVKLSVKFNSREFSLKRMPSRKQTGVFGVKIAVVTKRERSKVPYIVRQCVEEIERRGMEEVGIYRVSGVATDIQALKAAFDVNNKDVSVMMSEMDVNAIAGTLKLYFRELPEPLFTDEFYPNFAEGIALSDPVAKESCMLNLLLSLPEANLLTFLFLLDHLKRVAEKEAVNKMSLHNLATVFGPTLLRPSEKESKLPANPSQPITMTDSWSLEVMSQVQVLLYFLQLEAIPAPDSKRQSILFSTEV
# assay-explanation: Antiproliferative activity against human K562 cell line expressing Bcr-Abl
IC50 reference

[
  {
    "substance-smiles": "COc1ccc(-c2ccc(-c3cc(OC)cc(OC)c3)cc2)cc1",
    "recorded-value": "> 100 µM"
  },
  {
    "substance-smiles": "COc1cc(/C=C/c2cc(C(C)(C)C)c(O)c(C(C)(C)C)c2)cc(OC)c1",
    "recorded-value": "> 100 µM"
  }
]

Continue with the molecule presented below.
(Q) Please look up its IC50: "COc1cc(OC)cc(-c2ccc3cc(OC)ccc3c2)c1"
(A) > 100 µM

Source of measurements: BindingDB's records for doi:10.1021/jm060253o
